target: hAChE (Homo sapiens, UniProt P22303); construct: purchased Sigma C1682; assay: Ellman AChE inhibition assay, recombinant hAChE; assay type: biochemical; details: pH 7.8, 10 min preincubation; read-out: hAChE recomb. IC50
Sequence (P22303 32-614): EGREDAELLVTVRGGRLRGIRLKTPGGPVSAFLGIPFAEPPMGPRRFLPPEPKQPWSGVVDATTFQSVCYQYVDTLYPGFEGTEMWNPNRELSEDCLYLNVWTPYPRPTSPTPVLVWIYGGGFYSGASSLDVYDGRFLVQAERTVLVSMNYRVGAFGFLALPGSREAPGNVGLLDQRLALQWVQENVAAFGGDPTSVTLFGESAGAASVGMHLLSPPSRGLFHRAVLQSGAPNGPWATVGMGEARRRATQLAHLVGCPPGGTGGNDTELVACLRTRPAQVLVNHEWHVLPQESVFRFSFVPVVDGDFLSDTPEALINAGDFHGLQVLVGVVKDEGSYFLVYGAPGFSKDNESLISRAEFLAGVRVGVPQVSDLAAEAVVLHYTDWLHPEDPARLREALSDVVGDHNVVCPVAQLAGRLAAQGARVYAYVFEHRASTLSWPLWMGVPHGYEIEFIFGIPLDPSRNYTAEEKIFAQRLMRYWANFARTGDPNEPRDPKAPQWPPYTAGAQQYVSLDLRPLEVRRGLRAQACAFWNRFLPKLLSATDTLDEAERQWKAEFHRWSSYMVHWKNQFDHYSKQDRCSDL
Endpoint label: log10 of IC50 (log10 of the value in µM)
Hi team, quick reminder: these entries are log10 of IC50 (µM).

(Q) # input compound: CNC(=O)ON=C(C)SC [Methomyl, reference compound] ; wanted: its log10 of IC50
(A) -0.20

(Q) Quick check: log10 of IC50 of CCCCN(CCCC)SN(C)C(=O)Oc1cccc2c1OC(C)(C)C2 [Carbosulfan, reference compound] ?
(A) 0.77

(Q) Given the entry CNC(=O)Oc1cccc2ccccc12 [Carbaryl, reference compound] , report its measured log10 of IC50.
(A) 0.45

(Q) Bench note: what log10 of IC50 did CNC(=O)Oc1cccc2c1OC(C)(C)O2 [Bendiocarb, reference compound] show?
(A) -0.57

(Q) Could you tell me which log10 of IC50 is on file for CNC(=O)Oc1cccc2c1OC(C)(C)C2 [Carbofuran, reference compound] ?
(A) -1.21
